Tested on: PfAP2-G AP2 domain (GST-tagged)
assay-explanation: gcPBM binding intensity (ln(normalized median fluorescence intensity)); higher = stronger DNA binding
Over roughly 25,000 sequences, “ln(normalized median fluorescence intensity)” has its median near 10; the highest 2% begin near 12. What follows is part of a selection rich in the highest values, with near analogues and random picks from the rest.
outcome-measure: gcPBM binding intensity (ln)
Enter the number alone.

GAAAAAAAAAAAAGGGGTACATTTATTTTATCAATA [XGTACX_site8331]
11.5
CACCCACACCAACACACACACATATATAATATATAT [CACACA_site595]
10.3
CATATATATTTTATTTGTACGTATAAAAAAACAAAA [XGTACX_site4253]
11.5
ACATTTTTGGTTTTAGTGCAATATGAATTATTTTAT
10.1
AAAGATATTTTTATCTCACACATATAATATATATAT [CACACA_site5478]
9.84

// gcPBM binding intensity (ln) lookup, key: ATATATATATATATATGTACGTAAACAAAAATTTAT [XGTACX_site6780] 11.4

// gcPBM binding intensity (ln) lookup, key: AAAATTAATGTTGGTTGTACAAAAATTAAATATGGT [XGTACX_site66] 11.3

// gcPBM binding intensity (ln) lookup, key: ATATAATTTAATTTCTGTACATAAGAGAAAAAACAA [XGTACX_site4865] 11.1

// gcPBM binding intensity (ln) lookup, key: TTAACCACTAAAAGTACACACATATATACATATATA [CACACA_site3912] 11.4

// gcPBM binding intensity (ln) lookup, key: TATACATAAAACAGTTCACACATTGTATGAATATAT [CACACA_site4751] 9.86

// gcPBM binding intensity (ln) lookup, key: ATAAATAAAATAAAAGCACACAAAATGTAAATAATT [CACACA_site8895] 10

// gcPBM binding intensity (ln) lookup, key: TATTTTACACATTTACGTACATAAATATATATATAT [XGTACX_site8788] 11.6

// gcPBM binding intensity (ln) lookup, key: ATTATATAATTTAATCGTACACAAATATTTGTTAGT [XGTACX_site5913] 11.3

// gcPBM binding intensity (ln) lookup, key: TTACTTAAGAAACACACACACAAAAAAAAAAAAAAA [CACACA_site946] 9.91

// gcPBM binding intensity (ln) lookup, key: AAAAGACATTTTTTTTTATAAATACACACGTACGTG [TGCATGCA_negctrl_site281] 11.1

// gcPBM binding intensity (ln) lookup, key: TGAAATTTATAATAGTGTACAAAGAAAAAAAAAAAA [XGTACX_site4965] 11

// gcPBM binding intensity (ln) lookup, key: TATGTATGCCTGTTTTGTACTTAAGAAAATGTTGCT [XGTACX_site8443] 11

// gcPBM binding intensity (ln) lookup, key: TAATTTAAAAATATAAATGTTTCACTTATATATTTT [TGCATGCA_negctrl_site399] 9.41

// gcPBM binding intensity (ln) lookup, key: CTTATACTTCTACATCGTACAAAAGATGGTATAATT [XGTACX_site2698] 10.8

// gcPBM binding intensity (ln) lookup, key: GTATTCATGCTAAAGGTGCAATAATTTTTATAATAA [GTGCAC_site9603] 10.2
